# Tested on: Streptococcus pneumoniae
# Procedure Text: Antibacterial activity against erm(B) ribosomal methylase gene containing Streptococcus pneumoniae OC4051
# Format: functional
Observation Type: MIC

Below are worked cases with known answers.
Compound String	System Name	Observed
CC[C@H]1OC(=O)[C@H](C)[C@@H](OC(=O)N2CCCC2)[C@H](C)[C@@H](O[C@@H]2O[C@H](C)C[C@H](N(C)C)[C@H]2O)[C@](C)(OC(=O)NC/C=C/c2ccc(-c3ncccn3)cc2)C[C@@H](C)C(=O)[C@H](C)[C@H]2NC(=O)O[C@@]21C	Streptococcus pneumoniae	0.25 µg/mL
CC[C@H]1OC(=O)[C@H](C)C(=O)[C@H](C)[C@@H](O[C@@H]2O[C@H](C)C[C@H](N(C)C)[C@H]2O)[C@](C)(OC)C[C@@H](C)C(=O)[C@H](C)[C@H]2N(CCCCn3cnc(-c4cccnc4)c3)C(=O)O[C@]12C	Streptococcus pneumoniae	0.06 µg/mL
CC[C@H]1OC(=O)[C@H](C)[C@@H](OC(=O)Cc2ccccn2)[C@H](C)[C@@H](O[C@@H]2O[C@H](C)C[C@H](N(C)C)[C@H]2O)[C@](C)(OC(=O)NC/C=C/c2ccc(-c3ncccn3)cc2)C[C@@H](C)C(=O)[C@H](C)[C@H]2NC(=O)O[C@@]21C	Streptococcus pneumoniae	0.12 µg/mL
CC[C@H]1OC(=O)[C@H](C)[C@@H](OC(=O)Cc2cccnc2)[C@H](C)[C@@H](O[C@@H]2O[C@H](C)C[C@H](N(C)C)[C@H]2O)[C@](C)(OC(=O)NC/C=C/c2cnc3ccccc3c2)C[C@@H](C)C(=O)[C@H](C)[C@H]2NC(=O)O[C@@]21C	Streptococcus pneumoniae	0.12 µg/mL
CC[C@H]1OC(=O)[C@H](C)[C@@H](OC(=O)C(C)C)[C@H](C)[C@@H](O[C@@H]2O[C@H](C)C[C@H](N(C)C)[C@H]2O)[C@](C)(OC(=O)NC/C=C/c2ccc(-c3cccnn3)cc2)C[C@@H](C)C(=O)[C@H](C)[C@H]2NC(=O)O[C@@]21C	Streptococcus pneumoniae	0.12 µg/mL
CC[C@H]1OC(=O)[C@H](C)[C@@H](OC(=O)Cc2cccnc2)[C@H](C)[C@@H](O[C@@H]2O[C@H](C)C[C@H](N(C)C)[C@H]2O)[C@](C)(OC(=O)NC/C=C/C=C/c2cccnc2)C[C@@H](C)C(=O)[C@H](C)[C@H]2NC(=O)O[C@@]21C	Streptococcus pneumoniae	0.12 µg/mL

I am curious: what MIC value has been reported for `CC[C@H]1OC(=O)[C@H](C)[C@@H](OC(=O)C(C)C)[C@H](C)[C@@H](O[C@@H]2O[C@H](C)C[C@H](N(C)C)[C@H]2O)[C@](C)(OC(=O)NC/C=C/c2ccc(-c3ncccn3)cc2)C[C@@H](C)C(=O)[C@H](C)[C@H]2NC(=O)O[C@@]21C` ?
0.12 µg/mL

Now the same for `CC[C@H]1OC(=O)[C@H](C)[C@@H](O[C@H]2C[C@@](C)(OC)[C@@H](O)[C@H](C)O2)[C@H](C)[C@@H](O[C@@H]2O[C@H](C)C[C@H](N(C)C)[C@H]2O)[C@](C)(O)C[C@@H](C)C(=O)[C@H](C)[C@@H](O)[C@]1(C)O`
> 16 µg/mL
